Biological target: FAAH (Mus musculus)
Sequence (O08914 1-579): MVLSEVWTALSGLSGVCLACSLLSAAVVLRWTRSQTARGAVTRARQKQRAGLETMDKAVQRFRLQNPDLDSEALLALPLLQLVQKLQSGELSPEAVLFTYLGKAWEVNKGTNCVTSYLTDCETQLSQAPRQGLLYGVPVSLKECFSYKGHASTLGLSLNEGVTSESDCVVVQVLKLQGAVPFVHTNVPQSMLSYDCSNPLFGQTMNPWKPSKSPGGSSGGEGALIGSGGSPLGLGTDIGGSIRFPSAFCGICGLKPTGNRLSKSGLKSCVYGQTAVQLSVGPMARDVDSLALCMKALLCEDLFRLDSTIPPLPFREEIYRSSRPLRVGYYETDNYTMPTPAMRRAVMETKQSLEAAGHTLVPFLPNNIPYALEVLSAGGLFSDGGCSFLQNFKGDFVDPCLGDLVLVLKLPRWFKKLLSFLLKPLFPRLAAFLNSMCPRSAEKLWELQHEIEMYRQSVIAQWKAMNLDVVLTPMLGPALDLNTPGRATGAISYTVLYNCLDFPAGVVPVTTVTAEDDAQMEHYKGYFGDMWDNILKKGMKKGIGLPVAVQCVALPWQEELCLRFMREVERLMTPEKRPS
Experiment: In vitro competitive activity-based protein profiling, FAAH, mouse
Conditions: read-out: FAAH % inh. 1 μM (mouse)
readout: inhibition at 1 µM

1) O=C(O)c1ccn(C(=O)N2CCN(Cc3ccc(Cl)cc3N3CCCC3)CC2)n1	0 to 25%

Need inhibition at 1 µM of `O=C(O)c1nn(C(=O)N2CCN(Cc3cccc(Oc4ccc(Cl)cc4)c3)CC2)cc1Cl` , thanks.
> 75%

Need inhibition at 1 µM of `O=C(O)c1ccn(C(=O)N2CCC3(CCN(Cc4ccc(N5CCCC5)c(Cl)c4)C3)CC2)n1` , thanks.
0 to 25%

Need inhibition at 1 µM of `O=C(O)c1ccn(C(=O)N2CCN(Cc3cc(F)cc(Oc4ccc(Cl)cc4)c3)CC2)n1` , thanks.
> 75%

Need inhibition at 1 µM of `O=C(O)c1ccn(C(=O)N2CCC(NCc3cccc(Oc4ccc(Cl)cc4)c3)CC2)n1` , thanks.
50 to 75%

Need inhibition at 1 µM of `O=C(O)c1ccn(C(=O)N2CCC3(CCCN3Cc3ccc(C(F)(F)F)cc3Cl)CC2)n1` , thanks.
0 to 25%

###

inhibition at 1 µM values by entry
Biological target: FAAH (Mus musculus)
Sequence (O08914 1-579): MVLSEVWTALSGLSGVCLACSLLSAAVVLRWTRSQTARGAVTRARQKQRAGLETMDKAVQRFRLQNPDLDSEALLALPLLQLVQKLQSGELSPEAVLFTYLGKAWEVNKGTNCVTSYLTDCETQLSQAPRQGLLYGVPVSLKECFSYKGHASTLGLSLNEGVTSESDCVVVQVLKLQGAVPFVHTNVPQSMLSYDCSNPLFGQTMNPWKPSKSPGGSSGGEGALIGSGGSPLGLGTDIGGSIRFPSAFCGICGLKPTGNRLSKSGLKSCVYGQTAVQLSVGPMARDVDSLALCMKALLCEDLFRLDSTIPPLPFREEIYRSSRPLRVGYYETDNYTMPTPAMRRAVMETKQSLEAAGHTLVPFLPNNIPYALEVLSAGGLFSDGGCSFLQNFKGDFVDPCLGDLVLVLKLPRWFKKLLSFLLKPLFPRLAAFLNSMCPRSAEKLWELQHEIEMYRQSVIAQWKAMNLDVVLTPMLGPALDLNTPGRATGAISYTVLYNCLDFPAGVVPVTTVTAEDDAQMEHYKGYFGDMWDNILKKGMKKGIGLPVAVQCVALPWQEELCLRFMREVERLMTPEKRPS
Assay: In vitro competitive activity-based protein profiling, FAAH, mouse
Conditions: read-out: FAAH % inh. 1 μM (mouse)

1. C[C@H]1CCCN1c1cc(C(F)(F)F)ccc1CN1CCN(C(=O)n2ccc(C(=O)O)n2)CC1	0 to 25%
2. O=C(O)c1ccn(C(=O)N2C[C@H]3C[C@H](OCc4cccc(C(F)(F)F)c4)C[C@H]3C2)n1	> 75%
3. O=C(O)c1ccn(C(=O)N2CC3CN(Cc4ccc(Cl)cc4)CC3C2)n1 (stereo not shown)	25 to 50%
4. CN(Cc1ccccc1C(F)(F)F)[C@@H]1C[C@@H]2CN(C(=O)n3ccc(C(N)=O)n3)C[C@@H]2C1	> 75%
5. O=C(O)c1ccn(C(=O)N2CCN(Cc3cc4cc(Cl)ccc4s3)CC2)n1	0 to 25%
6. O=C(O)c1ccn(C(=O)N2CCN(Cc3ccc(N4CCCC4)cc3C(F)(F)F)CC2)n1	0 to 25%

For the record `O=C(O)c1ccn(C(=O)N2CCC(OCc3cc(F)cc(Cl)c3)CC2)n1` , what value of inhibition at 1 µM is listed for FAAH (Mus musculus)?
0 to 25%

###

Target: FAAH (Mus musculus)
Test: In vitro competitive activity-based protein profiling, FAAH, mouse
Details: read-out: FAAH % inh. 1 μM (mouse)
readout: inhibition at 1 µM

For the record O=C(O)c1nn(C(=O)N2CCC3(CCCN3Cc3cc4ccc(C(F)(F)F)cc4s3)CC2)cc1C(F)(F)F [Example 149] , what value of inhibition at 1 µM is listed for FAAH (Mus musculus)?
> 75%

For the record O=C(O)c1ccn(C(=O)N2CCN(Cc3ccc(C(F)(F)F)cc3N3CCN4CCC[C@@H]4C3)CC2)n1 [Example 48] , what value of inhibition at 1 µM is listed for FAAH (Mus musculus)?
0 to 25%

For the record NC(=O)c1ccn(C(=O)N2CCN(Cc3ccc(Cl)cc3)CC2)n1 [Example 181] , what value of inhibition at 1 µM is listed for FAAH (Mus musculus)?
> 75%

For the record O=C(O)c1ccn(C(=O)N2CCN(Cc3ccc(C(F)(F)F)c(N4C5CCC4COC5)c3)CC2)n1 [Example 40] , what value of inhibition at 1 µM is listed for FAAH (Mus musculus)?
0 to 25%

For the record NC(=O)c1ccn(C(=O)N2CC3CN(Cc4cc(Cl)cc(C(F)(F)F)c4)CC3C2)n1 (centres unmarked) [Example 201] , what value of inhibition at 1 µM is listed for FAAH (Mus musculus)?
> 75%

For the record O=C(O)c1nn(C(=O)N2CCC3(CC2)CN(Cc2cc(Cl)ccc2C(F)(F)F)C3)cc1Cl [Example 134] , what value of inhibition at 1 µM is listed for FAAH (Mus musculus)?
50 to 75%

For the record O=C(O)c1ccn(C(=O)N2CCC3(CCN(Cc4cnccc4C(F)(F)F)C3)CC2)n1 [Example 127] , what value of inhibition at 1 µM is listed for FAAH (Mus musculus)?
0 to 25%

For the record O=C(O)c1ccn(C(=O)N2CCN(Cc3ccc(C(F)(F)F)cc3-c3nnco3)CC2)n1 [Example 69] , what value of inhibition at 1 µM is listed for FAAH (Mus musculus)?
0 to 25%

###

Biological target: FAAH (Mus musculus)
Experiment: In vitro competitive activity-based protein profiling, FAAH, mouse
Settings: read-out: FAAH % inh. 1 μM (mouse)
readout: inhibition at 1 µM

Completed entries (count: 5):
1) O=C(O)c1ccn(C(=O)N2CCN(Cc3cccc(Oc4ccncn4)c3)CC2)n1	0 to 25%
2) O=C(O)c1ccn(C(=O)N2CCC3(CCCN3Cc3ccc(C(F)(F)F)cc3N3C4CCC3COC4)CC2)n1	0 to 25%
3) O=C(O)c1nn(C(=O)N2CC3CN(Cc4cccc(Oc5ccc(Cl)cc5)c4)CC3C2)cc1C(F)(F)F (centres unmarked)	> 75%
4) CN(Cc1ccc(Cl)c(N2CCCC2)c1)C1(C)CCN(C(=O)n2ccc(C(=O)O)n2)CC1	0 to 25%
5) O=C(O)c1ccn(C(=O)N2CCN(Cc3cccc(Oc4ccc(F)cc4)c3)CC2)n1	0 to 25%

Need inhibition at 1 µM of `NC(=O)c1ccn(C(=O)N2CCN(Cc3cccc(C(F)(F)F)c3N3CCOCC3)CC2)n1` , thanks.
> 75%

Need inhibition at 1 µM of `O=C(O)c1ccn(C(=O)N2C[C@H]3C[C@H](OCc4cc(F)cc(Cl)c4)C[C@H]3C2)n1` , thanks.
> 75%

Need inhibition at 1 µM of `O=C(O)c1ccn(C(=O)N2CCC3(CCN(Cc4cc(F)cc(Cl)c4)C3)CC2)n1` , thanks.
0 to 25%

###

inhibition at 1 µM values by entry
Target: UniProt O00519
Sequence (O00519 whole entry): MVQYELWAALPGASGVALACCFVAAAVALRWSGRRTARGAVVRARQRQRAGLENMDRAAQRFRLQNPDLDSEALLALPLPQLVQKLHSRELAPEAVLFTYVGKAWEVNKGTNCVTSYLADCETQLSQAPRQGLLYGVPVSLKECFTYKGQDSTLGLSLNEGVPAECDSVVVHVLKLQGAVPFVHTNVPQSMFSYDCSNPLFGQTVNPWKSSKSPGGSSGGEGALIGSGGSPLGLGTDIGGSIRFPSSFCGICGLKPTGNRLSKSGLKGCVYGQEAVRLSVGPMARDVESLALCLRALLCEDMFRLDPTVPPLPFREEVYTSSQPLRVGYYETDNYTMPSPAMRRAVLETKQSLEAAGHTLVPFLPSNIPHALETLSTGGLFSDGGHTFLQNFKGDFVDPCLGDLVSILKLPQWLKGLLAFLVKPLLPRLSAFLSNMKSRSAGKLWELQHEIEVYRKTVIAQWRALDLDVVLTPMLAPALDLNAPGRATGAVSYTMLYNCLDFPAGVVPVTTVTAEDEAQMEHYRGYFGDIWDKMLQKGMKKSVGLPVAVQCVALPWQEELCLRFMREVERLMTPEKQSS
Test: In vitro competitive activity-based protein profiling, FAAH, human
Conditions: read-out: FAAH % inh. 1 μM (human)

Completed entries (count: 5):
1. O=C(O)c1ccn(C(=O)N2C[C@H]3C[C@@H](OCc4ccccc4Cl)C[C@H]3C2)n1	> 75%
2. O=C(O)c1ccn(C(=O)N2CCN(Cc3ccc(C(F)(F)F)cc3N3CCCC3)CC2)n1	0 to 25%
3. CN(Cc1ccc(Cl)c(N2CCCC2)c1)C1(C)CCN(C(=O)n2ccc(C(=O)O)n2)CC1	0 to 25%
4. O=C(O)c1ccn(C(=O)N2CCC(NCc3cccc(Oc4ccc(Cl)cc4)c3)CC2)n1	25 to 50%
5. CC1CCC(C)N1c1cc(C(F)(F)F)ccc1CN1CCN(C(=O)n2ccc(C(=O)O)n2)CC1 (stereo not shown)	0 to 25%

For the record `O=C(O)c1ccn(C(=O)N2CCC3(CCN(Cc4cnccc4C(F)(F)F)C3)CC2)n1` , what value of inhibition at 1 µM is listed for UniProt O00519?
0 to 25%

For the record `O=C(O)c1ccn(C(=O)N2CCN(Cc3ccc(C(F)(F)F)cc3-c3nnco3)CC2)n1` , what value of inhibition at 1 µM is listed for UniProt O00519?
0 to 25%

For the record `O=C(O)c1ccn(C(=O)N2CCC3(CCN(Cc4cccc(OC(F)(F)F)c4)C3)CC2)n1` , what value of inhibition at 1 µM is listed for UniProt O00519?
0 to 25%

For the record `O=C(O)c1ccn(C(=O)N2CCC3(CCN(Cc4ccc(Cl)cc4N4CCCC4)C3)CC2)n1` , what value of inhibition at 1 µM is listed for UniProt O00519?
0 to 25%

For the record `O=C(O)c1ccn(C(=O)N2CCC3(CCN(Cc4cc(F)cc(Cl)c4)C3)CC2)n1` , what value of inhibition at 1 µM is listed for UniProt O00519?
50 to 75%

For the record `NC(=O)c1ccn(C(=O)N2CCC3(CCN(Cc4ccc(N5CCOCC5)cc4Cl)C3)CC2)n1` , what value of inhibition at 1 µM is listed for UniProt O00519?
> 75%

For the record `COC1CCN(c2cc(C(F)(F)F)ccc2CN2CCN(C(=O)n3ccc(C(=O)O)n3)CC2)CC1` , what value of inhibition at 1 µM is listed for UniProt O00519?
0 to 25%

For the record `NC(=O)c1ccn(C(=O)N2CCN(Cc3cccc(C(F)(F)F)c3N3CCOCC3)CC2)n1` , what value of inhibition at 1 µM is listed for UniProt O00519?
> 75%

For the record `O=C(O)c1ccn(C(=O)N2CCN(Cc3ccc(C(F)(F)F)cc3N3CCCCC3)CC2)n1` , what value of inhibition at 1 µM is listed for UniProt O00519?
0 to 25%

For the record `O=C(O)c1nn(C(=O)N2CCN(Cc3cccc(Oc4ccc(Cl)cc4)c3)CC2)cc1Cl` , what value of inhibition at 1 µM is listed for UniProt O00519?
> 75%

For the record `O=C(O)c1ccn(C(=O)N2CCN(Cc3cccc(Oc4ccc(C(F)(F)F)cn4)c3)CC2)n1` , what value of inhibition at 1 µM is listed for UniProt O00519?
> 75%
